This section presents IC50 values reported for Prostaglandin G/H synthase 2 (Homo sapiens) in the literature.
outcome measure: IC50 (µM)

- O=C(C1=C(O)c2ccccc2S(=O)(=O)N1CC(=O)N1CCN(c2ccccc2)CC1)c1ccc(Br)cc1: 12.5
- COc1ccc(C(=O)C2=C(O)c3ccccc3S(=O)(=O)N2CCCN2CCN(c3ccccn3)CC2)cc1: 13.2
- O=C(OC[C@H]1O[C@@H](OC(=O)c2cc(O)c(O)c(O)c2)[C@H](OC(=O)c2cc(O)c(O)c(O)c2)[C@@H](OC(=O)c2cc(O)c(O)c(O)c2)[C@@H]1OC(=O)c1cc(O)c(O)c(O)c1)c1cc(O)c(O)c(O)c1: 220
- C=Cc1ccc(O)cc1OC: 135
- O=C(OC[C@H]1O[C@@H](OC(=O)c2cc(O)c(O)c(O)c2)[C@H](OC(=O)c2cc(O)c(O)c(O)c2)[C@@H](OC(=O)c2cc(O)c(O)c(O)c2)[C@@H]1O)c1cc(O)c(O)c(O)c1: 1.04
